Taken from ChEMBL document CHEMBL4043075.

Assay: Half life in human liver microsomes at 3 uM up to 45 mins in presence of NADPH by LC-MS/MS analysis
Format: ADME, microsome
Readout label: half-life at 3 µM (h)

>>> numeric_value("c1ccc(C(CC2CCCCN2)C2CCCCC2)cc1 (stereo not given)")
0.933

I. C1CCC(C(CC2CCCCN2)C2CC2)CC1 (stereo not given)
II. FC1CCC(C(CC2CCCCN2)C2CCCCC2)CC1 (stereo not given)
Query: # compare half-life at 3 µM for I vs II ; return the one with the smaller value Lab note: record the label of whichever item you select.
Result: II

====

Assay: Plasma concentration in BALB/c mouse at 10 mg/kg, po administered via gavage every 24 hrs for 7 days measured 8 hrs post last dose by LC-MS/MS analysis
Format: ADME, organism-based
Readout label: concentration at 8 h (ng/mL)

A. FC1(F)CCC(C(CC2CCCCN2)C2CCCCC2)CC1 (configuration not stated)
B. C1CCC(C(CC2CCCCN2)C2CCCCC2)CC1 (racemic) [PERHEXILINE]
Query: # compare concentration at 8 h for A vs B ; return the one with the smaller value Lab note: record the label of whichever item you select.
Result: B

====

Experiment: Drug uptake in BALB/c mouse myocardium at 10 mg/kg, po administered via gavage every 24 hrs for 7 days measured 8 hrs post last dose by LC-MS/MS analysis
Assay type: ADME, organism-based
Conditions: read-out: Drug uptake
Readout label: concentration at 8 h (ng/mL)

I. C1CCC(C(CC2CCCCN2)C2CCCCC2)CC1 (racemic)
II. FC1(F)CCC(C(CC2CCCCN2)C2CCCCC2)CC1 (configuration not stated)
Query: Could you point out whether the larger concentration at 8 h belongs to I or to II ? Lab note: record the label of whichever item you select.
Result: II
(II: 1830 ng/mL, I: 29.2 ng/mL)

====

Experiment: Ratio of drug level in myocardium to plasma in Sprague-Dawley rat at 10 mg/kg, po administered via gavage every 24 hrs measured at 8 hrs post dose by LC-MS/MS analysis
Format: ADME, organism-based
Details: myocardium and plasma
Readout label: Kp at 8 h

P. FC1(F)CCC(C(CC2CCCCN2)C2CCCCC2)CC1 (configuration not stated)
Q. C1CCC(C(CC2CCCCN2)C2CCCCC2)CC1 (racemic)
Query: Could you point out whether the larger Kp at 8 h belongs to P or to Q ? Lab note: record the label of whichever item you select.
Result: Q

====

Experiment: AUC (0 to 24 hrs) in BALB/c mouse myocardium at 10 mg/kg, po administered via gavage every 24 hrs for 7 days measured post last dose by LC-MS/MS analysis
Assay type: ADME, organism-based
Set-up: time < 24 hr, dose 10 mg/kg, route oral
Readout label: AUC at 24 h (ng·h/mL)

A. C1CCC(C(CC2CCCCN2)C2CCCCC2)CC1 (racemic)
B. FC1(F)CCC(C(CC2CCCCN2)C2CCCCC2)CC1 (configuration not stated)
Query: # compare AUC at 24 h for A vs B ; return the one with the smaller value Lab note: record the label of whichever item you select.
Result: A
(A: 2110 ng·h/mL, B: 32400 ng·h/mL)

====

Target: CYP2D6 (Homo sapiens, UniProt P10635)
Sequence (P10635 whole entry): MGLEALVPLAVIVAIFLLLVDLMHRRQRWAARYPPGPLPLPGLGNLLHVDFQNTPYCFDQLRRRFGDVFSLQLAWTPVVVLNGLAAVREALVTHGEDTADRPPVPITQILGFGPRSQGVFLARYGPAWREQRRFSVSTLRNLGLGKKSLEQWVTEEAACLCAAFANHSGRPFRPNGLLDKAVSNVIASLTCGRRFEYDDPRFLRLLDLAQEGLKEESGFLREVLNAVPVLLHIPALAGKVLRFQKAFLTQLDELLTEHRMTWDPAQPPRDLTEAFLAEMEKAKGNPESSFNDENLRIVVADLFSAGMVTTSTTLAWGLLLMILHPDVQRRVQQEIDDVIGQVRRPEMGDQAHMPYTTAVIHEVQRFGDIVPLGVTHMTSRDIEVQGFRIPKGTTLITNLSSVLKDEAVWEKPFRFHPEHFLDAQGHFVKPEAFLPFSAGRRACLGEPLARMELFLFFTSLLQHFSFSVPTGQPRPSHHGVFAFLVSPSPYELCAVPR
Assay: Drug metabolism assessed as human CYP2D6-mediated compound degradation by measuring half life at 5 uM up to 45 mins in presence of NADPH by LC-MS/MS analysis
Format: ADME
Readout label: half-life at 5 µM (min)

A. C1CCC(C(CC2CCCCN2)C2CCCC2)CC1 (stereo unspecified)
B. FC1(F)CCC(C(CC2CCCCN2)C2CCCCC2)CC1 (stereo unspecified)
Query: # compare half-life at 5 µM for A vs B ; return the one with the smaller value Lab note: record the label of whichever item you select.
Result: A
(A: 16 min, B: 104 min)
